System: UO-31
Method Description: NCI tumour cell line growth inhibition, 48 h
The source made the active and inactive calls. Cut-off read from the data, not from the text of the source: active = GI50 up to about 1.1 µM and inactive = higher.
Outcomes: true (1) = active, false (0) = inactive

Molecule: COC1=CC(=O)c2ccccc2C1(CCC=C(C)C)C1=NC(C)(C)CO1 (configuration not stated)
Cat: false (0)

Molecule: Cc1ccccc1N(C)S(=O)(=O)c1ccccc1[N+](=O)[O-]
Cat: false (0)

Molecule: Cn1nc(C(=O)N2CC(CCl)c3c2cc(N)c2ccccc32)cc1NC(=O)Nc1cc(C(=O)N2CC(CCl)c3c2cc(N)c2ccccc32)nn1C (configuration not stated)
Cat: false (0)

Molecule: CC(=O)O[C@H]1[C@H](OC(=O)CC(C)(O)CC(=O)O)C[C@]2(C)C3=C(CCC2C1(C)C)[C@]1(C)CC[C@H]([C@H]2CC[C@H](C(C)(C)O)OC2O)[C@@]1(C)[C@@H](O)C3 (some centres not stated)
Cat: false (0)

Molecule: CC1CN=C(N(C(=O)Nc2ccc(Cl)c(Cl)c2)c2ccccc2)S1 (configuration not stated)
Cat: false (0)

Molecule: CS(=O)(=O)c1ccc(/N=C/C=C/Nc2ccc(S(C)(=O)=O)cc2)cc1
Cat: false (0)

Molecule: C=CC(Br)(CBr)CCC(Cl)C(C)C (configuration not stated)
Cat: false (0)

Molecule: CCCCN(CCCC)C(=O)C(=O)C(C#N)c1ccc(C)cc1 (configuration not stated)
Cat: false (0)

Molecule: O=c1c2cc(I)ccc2nc(-c2cccs2)n1-c1ccc(O)cc1
Cat: false (0)

Molecule: Cc1c2c(n(CCc3ccccc3)c1C)N(C)N=C(C#N)S2(=O)=O
Cat: false (0)

Molecule: CC1(c2nc3ccccc3[nH]2)CCC(C(N)=O)C(C)(C)O1 (configuration not stated)
Cat: false (0)

Molecule: CCCCc1ccc(-n2c3nc(=O)n(C)c(=O)c-3nc3ccccc32)cc1
Cat: false (0)

Molecule: Clc1ccc2c(NCCNc3ccnc4cc(Cl)ccc34)ccnc2c1
Cat: false (0)

Molecule: CCN1C(=O)/C(=C2\SC(c3ccccc3)(c3ccccc3)c3ccccc32)SC1=S
Cat: false (0)

Molecule: COc1ccccc1NCC(=O)Nn1c(C)nc2ccc(S(=O)(=O)Nc3ccccc3OC)cc2c1=O
Cat: false (0)

Molecule: N=C(N)NS(=O)(=O)c1ccc(Nc2c3ccccc3nc3c(C(=O)NCCO)cccc23)cc1
Cat: true (1)

Molecule: COC(=O)C1[C@@H](C(=O)OC)C(=O)O[C@H]1c1cc(OC)c(OC)c(OC)c1 (some centres not stated)
Cat: false (0)
